Answer each item with its documented viability at 10 µM.
Test system: cancer cells
methodSummary: Survival rate of cancer cells after test compound is added (flow cytometry, Annexin V-FITC/PI, clinical specimen)
Assay type: cell-based, patient
assaySetup: Homo sapiens, 18 h, Laryngeal cancer; 10.0 μM; read-out: Survival rate (%) All cells (Stem cells and ordinary cells)
Text: […]

Task item: Give its viability at 10 µM value. Item: CCOC(=O)[C@@H]1CCCN1C[C@@H]1C(=O)O[C@H]2[C@H]1CCC1(CC1)[C@@H]1CCC3(CC3)[C@H]21
Reply: 93%

Task item: Look at this molecule and give its reported viability at 10 µM. C=C1C(=O)O[C@@H]2[C@@H]3[C@@H](CC[C@@]3(C)O)[C@](C)(O)CC[C@@H]12
Reply: 91%

Task item: Quick check: viability at 10 µM of C=C1C(=O)O[C@@H]2[C@@H]3[C@@H](CC[C@@]3(C)O)C(=C)CC[C@@H]12 ?
Reply: 76%

Task item: Which value of viability at 10 µM has been reported for C=C1C(=O)O[C@@H]2[C@H]3C(C)=CC[C@@]34O[C@@]4(C)CC[C@@H]12 in the records?
Reply: 75%

Task item: // query viability at 10 µM value for entry C=C1C(=O)O[C@H]2[C@H]1CC[C@]1(C)O[C@@]13CC[C@@](C)(O)[C@H]23
Reply: 75%

Task item: For the molecule shown here, C=C1CC[C@H]2C(=C)CC[C@H]3C(=C)C(=O)O[C@@H]3[C@@H]12 , give the reported viability at 10 µM.
Reply: 74%

###

Assign viability at 20 µM to each entry below.
Test system: cancer stem cells
methodSummary: Survival rate of cancer stem cells after test compound is added (flow cytometry, Annexin V-FITC/PI, clinical specimen)
Assay type: cell-based, patient
assaySetup: Homo sapiens, 18 h, Lung cancer; 20.0 μM
Record the value in %, omitting the unit from your answer.

Task item: Kindly state the measured viability at 20 µM obtained for C=C1C(=O)O[C@@H]2[C@@H]3[C@@H](CC[C@@]3(C)O)C(=C)CC[C@@H]12 [Compound 48] with cancer stem cells.
Reply: 54

Task item: Param readout = viability at 20 µM; param system = cancer stem cells; param query = C=C1CC[C@H]2C(=C)CC[C@H]3C(=C)C(=O)O[C@@H]3[C@@H]12 [Compound 25] ; response: value
Reply: 29

Task item: // map CN(C)C[C@@H]1C(=O)O[C@H]2[C@H]1CCC1(CC1)[C@@H]1CCC3(CC3)[C@H]21 [Compound 27] to recorded viability at 20 µM (system: cancer stem cells)
Reply: 72

Task item: Request: viability at 20 µM, test system cancer stem cells, entry C=C1C(=O)O[C@H]2[C@H]1CC[C@@](C)(OC)C1CC[C@@](C)(O)[C@@H]12 (stereo partly drawn) [Compound 47]
Reply: 79

Task item: For cancer stem cells, provide viability at 20 µM of CCOC(=O)[C@@H]1CCCN1C[C@@H]1C(=O)O[C@H]2[C@H]1CCC1(CC1)[C@@H]1CCC3(CC3)[C@H]21 [Compound 29] please.
Reply: 76

Task item: // map C=C1C(=O)O[C@H]2[C@H]1CC[C@]1(C)O[C@@]13CC[C@@](C)(O)[C@H]23 [Compound 24] to recorded viability at 20 µM (system: cancer stem cells)
Reply: 54

###

System: cancer cells
methodSummary: Survival rate of cancer cells after test compound is added (flow cytometry, Annexin V-FITC/PI, clinical specimen)
Format: cell-based, patient
assaySetup: Homo sapiens, 18 h, Lung adenocarcinoma; 20.0 μM; read-out: Survival rate (%) All cells (Stem cells and ordinary cells)
measurementKind: viability at 20 µM (%)
Note: unit % is implicit; provide only the numeric part.

Task item: Fill blank: measured viability at 20 µM of the compound CN(C)C[C@@H]1C(=O)O[C@H]2[C@H]1CCC1(CC1)[C@@H]1CCC3(CC3)[C@H]21 [Compound 27] is ____.
Reply: 86

Task item: Requested field: viability at 20 µM. Item: C=C1C(=O)O[C@@H]2[C@@H]3[C@@H](CC[C@@]3(C)O)[C@](C)(O)CC[C@@H]12 [Compound 49]
Reply: 88

Task item: Any idea what viability at 20 µM was measured for C=C1C(=O)O[C@@H]2[C@@H]3[C@@H](CCC34CC4)C3(CC[C@@H]12)CC3 [Compound 26] ?
Reply: 87

Task item: Which value of viability at 20 µM has been reported for C=C1C(=O)O[C@H]2[C@H]1CC[C@@](C)(OC)C1CC[C@@](C)(O)[C@@H]12 (stereo partly shown) [Compound 47] in the records?
Reply: 89

###

Test system: cancer cells
methodSummary: Survival rate of cancer cells after test compound is added (flow cytometry, Annexin V-FITC/PI, clinical specimen)
Assay type: cell-based, patient
assaySetup: Homo sapiens, 18 h, Prostate cancer; 20.0 μM; read-out: Survival rate (%) All cells (Stem cells and ordinary cells)
For each entry below, report its viability at 20 µM value.
Quick note: give the figure in %, leave out the unit.

Task item: Name the recorded viability at 20 µM for C=C1C(=O)O[C@H]2[C@H]1CC[C@@](C)(OC)C1CC[C@@](C)(O)[C@@H]12 (stereo partly shown) .
Reply: 89

Task item: Could you tell me which viability at 20 µM is on file for C=C1CC[C@H]2C(=C)CC[C@H]3C(=C)C(=O)O[C@@H]3[C@@H]12 ?
Reply: 44

Task item: Item under review: CC1=C2CC[C@@](C)(O)[C@@H]2[C@H]2OC(=O)[C@@H](CN(C)C)[C@@H]2CC1 . Reported viability at 20 µM?
Reply: 89

Task item: Look up viability at 20 µM for this compound: [2H][C@@]1(CN(C)C)C(=O)O[C@@H]2[C@@H]3[C@@H](CCC34CC4)C3(CC[C@H]21)CC3
Reply: 87

Task item: Fill in the blank: the reported viability at 20 µM of C=C1C(=O)O[C@@H]2[C@@H]3[C@@H](CC[C@@]3(C)O)C(=C)CC[C@@H]12 is ____.
Reply: 62

Task item: Given the compound CCOC(=O)[C@@H]1CCCN1C[C@@H]1C(=O)O[C@H]2[C@H]1CCC1(CC1)[C@@H]1CCC3(CC3)[C@H]21 , what is its reported viability at 20 µM?
Reply: 86

Task item: Field request: viability at 20 µM | item: C=C1C(=O)O[C@H]2[C@H]1CCC(C)=C1CC[C@@](C)(OC(=O)CCCc3cn(CCCCCCO)nn3)[C@@H]12
Reply: 65

Task item: Would you mind telling me what viability at 20 µM value was observed for C=C1C(=O)O[C@@H]2[C@H]3C(C)=CC[C@@]34O[C@@]4(C)CC[C@@H]12 ?
Reply: 54

Task item: Which viability at 20 µM is listed for C=C1C(=O)O[C@@H]2[C@@H]3[C@@H](CC[C@@]3(C)O)[C@](C)(O)CC[C@@H]12 ?
Reply: 89

Task item: # query: viability at 20 µM of entry C=C1C(=O)O[C@@H]2[C@@H]3[C@@H](CCC34CC4)C3(CC[C@@H]12)CC3
Reply: 89

Task item: Reported viability at 20 µM for C=C1C(=O)O[C@H]2[C@H]1CC[C@]1(C)O[C@@]13CC[C@@](C)(O)[C@H]23 : what is it?
Reply: 62

###

Test system: cancer cells
methodSummary: Survival rate of cancer cells after test compound is added (flow cytometry, Annexin V-FITC/PI, clinical specimen)
Format: cell-based, patient
assaySetup: Homo sapiens, 18 h, Glioma; 10.0 μM; read-out: Survival rate (%) All cells (Stem cells and ordinary cells)
measurementKind: viability at 10 µM (%)
Write it as a number; the unit % goes unstated.

Task item: What does the record list as viability at 10 µM for C=C1C(=O)O[C@H]2[C@H]1CC[C@@](C)(OC)C1CC[C@@](C)(O)[C@@H]12 (stereo partly shown) [Compound 47] ?
Reply: 94

Task item: Give its viability at 10 µM value. Item: C=C1CC[C@H]2C(=C)CC[C@H]3C(=C)C(=O)O[C@@H]3[C@@H]12 [Compound 25]
Reply: 83

Task item: Look up viability at 10 µM for this compound: C=C1C(=O)O[C@H]2[C@H]1CCC(C)=C1CC[C@@](C)(OC(=O)CCCc3cn(CCCCCCO)nn3)[C@@H]12 [Compound 21]
Reply: 87

Task item: Query (compound): CC1=C2CC[C@@](C)(O)[C@@H]2[C@H]2OC(=O)[C@@H](CN(C)C)[C@@H]2CC1 [Compound 23] ; field requested: viability at 10 µM
Reply: 94

Task item: Suppose we examine the compound [2H][C@@]1(CN(C)C)C(=O)O[C@@H]2[C@@H]3[C@@H](CCC34CC4)C3(CC[C@H]21)CC3 [Compound 46] ; what viability at 10 µM value has been reported?
Reply: 91

Task item: I am curious: what viability at 10 µM value has been reported for CCOC(=O)[C@@H]1CCCN1C[C@@H]1C(=O)O[C@H]2[C@H]1CCC1(CC1)[C@@H]1CCC3(CC3)[C@H]21 [Compound 29] ?
Reply: 91

Task item: viability at 10 µM for C=C1C(=O)O[C@H]2[C@H]1CC[C@]1(C)O[C@@]13CC[C@@](C)(O)[C@H]23 [Compound 24] ?
Reply: 78

Task item: I have this compound here, C=C1C(=O)O[C@@H]2[C@@H]3[C@@H](CC[C@@]3(C)O)[C@](C)(O)CC[C@@H]12 [Compound 49] , and I need its recorded viability at 10 µM.
Reply: 88

Task item: Any idea what its viability at 10 µM is? The compound is C=C1C(=O)O[C@@H]2[C@@H]3[C@@H](CC[C@@]3(C)O)C(=C)CC[C@@H]12 [Compound 48]
Reply: 78

Task item: So what's the measured viability at 10 µM for this one? C=C1C(=O)O[C@@H]2[C@@H]3[C@@H](CCC34CC4)C3(CC[C@@H]12)CC3 [Compound 26]
Reply: 94

Task item: # lookup: viability at 10 µM of CN(C)C[C@@H]1C(=O)O[C@H]2[C@H]1CCC1(CC1)[C@@H]1CCC3(CC3)[C@H]21 [Compound 27]
Reply: 88

Task item: May I ask what viability at 10 µM has been recorded for C=C1C(=O)O[C@@H]2[C@H]3C(C)=CC[C@@]34O[C@@]4(C)CC[C@@H]12 [Compound 50] ?
Reply: 74

Task item: What does the record list as viability at 10 µM for CN(C)C[C@@H]1C(=O)O[C@H]2[C@H]1CCC1(CC1)[C@@H]1CCC3(CC3)[C@H]21 [Compound 35] ?
Reply: 87
